Where do these numbers come from? They come from ChEMBL document CHEMBL1938239.

biological target: Prostaglandin G/H synthase 2 (Homo sapiens, UniProt P35354); assay: Inhibition of COX2-mediated PGE2 production in LPS-induced human whole blood after 60 mins by radioimmunoassay
Sequence (P35354 whole entry): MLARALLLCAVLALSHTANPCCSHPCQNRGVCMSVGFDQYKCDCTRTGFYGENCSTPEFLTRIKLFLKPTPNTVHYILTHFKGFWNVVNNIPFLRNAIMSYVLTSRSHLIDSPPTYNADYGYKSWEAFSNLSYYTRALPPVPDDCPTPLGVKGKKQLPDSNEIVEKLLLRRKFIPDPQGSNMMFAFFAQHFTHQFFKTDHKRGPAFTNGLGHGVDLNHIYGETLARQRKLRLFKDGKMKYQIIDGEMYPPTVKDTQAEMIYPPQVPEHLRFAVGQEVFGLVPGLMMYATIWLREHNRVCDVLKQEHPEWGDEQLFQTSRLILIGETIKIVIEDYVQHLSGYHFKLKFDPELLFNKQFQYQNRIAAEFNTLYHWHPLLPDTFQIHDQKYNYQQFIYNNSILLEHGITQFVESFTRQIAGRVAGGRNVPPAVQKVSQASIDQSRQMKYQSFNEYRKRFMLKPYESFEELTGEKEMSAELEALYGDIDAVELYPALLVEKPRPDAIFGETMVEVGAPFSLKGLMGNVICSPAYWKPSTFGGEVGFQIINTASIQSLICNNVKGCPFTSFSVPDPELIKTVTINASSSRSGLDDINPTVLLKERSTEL
MEASUREMENT_LABEL: IC50
Remember to put the unit after the number in your answer.

smiles_text=Cc1c(CC(=O)OCCO)cc(-c2ccc(S(C)(=O)=O)cc2)n1-c1cccc(F)c1 endpoint_result="1.7 µM"

Proceed to the following item.
Task: Looking for the measured IC50 of "Cc1c(CC(=O)OCCO[N+](=O)[O-])cc(-c2ccc(S(C)(=O)=O)cc2)n1-c1cccc(F)c1" , can you help?
Result: 3.2 µM

----------
Target: Prostaglandin G/H synthase 2 (Mus musculus, UniProt Q05769)
Sequence (Q05769 whole entry): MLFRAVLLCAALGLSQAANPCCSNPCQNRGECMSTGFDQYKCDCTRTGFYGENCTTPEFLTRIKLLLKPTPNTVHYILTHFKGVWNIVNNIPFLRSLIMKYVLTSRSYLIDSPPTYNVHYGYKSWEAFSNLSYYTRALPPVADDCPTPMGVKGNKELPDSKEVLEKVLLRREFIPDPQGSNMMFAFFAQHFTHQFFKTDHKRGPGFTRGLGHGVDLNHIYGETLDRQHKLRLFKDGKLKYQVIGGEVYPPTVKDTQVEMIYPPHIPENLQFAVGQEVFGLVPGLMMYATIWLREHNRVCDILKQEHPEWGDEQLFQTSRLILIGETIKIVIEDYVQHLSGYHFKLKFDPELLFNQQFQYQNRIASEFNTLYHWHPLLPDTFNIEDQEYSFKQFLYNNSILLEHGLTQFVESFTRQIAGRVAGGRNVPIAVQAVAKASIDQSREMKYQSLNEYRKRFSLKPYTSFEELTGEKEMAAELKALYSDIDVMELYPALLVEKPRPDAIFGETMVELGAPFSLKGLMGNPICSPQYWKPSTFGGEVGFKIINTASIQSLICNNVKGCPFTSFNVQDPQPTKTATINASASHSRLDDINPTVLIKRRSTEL
Assay: Inhibition of COX-2-mediated PGE2 production in LPS-stimulated mouse J774 cells after 24 hrs by radioimmunoassay
Criterion: IC50 strictly under 40 nM. Met: fulfilled. Not met: not fulfilled.

smiles_text=CSc1ccc(-n2c(-c3ccc(S(C)(=O)=O)cc3)cc(CC(=O)O)c2C)cc1 target_under_test="Prostaglandin G/H synthase 2 (Mus musculus, UniProt Q05769)" class_assignment=fulfilled

Task: Say whether its IC50 is strictly beneath 40 nM. Entry: "Cc1c(CC(=O)OCCCO[N+](=O)[O-])cc(-c2ccc(S(C)(=O)=O)cc2)n1-c1cccc(F)c1"
Result: fulfilled

Task: Same question, "Cc1c(CC(=O)OCCCO[N+](=O)[O-])cc(-c2ccc(S(C)(=O)=O)cc2)n1-c1ccc(F)cc1" this time
Result: fulfilled
